- System: RXF 393
- test description: NCI tumour cell line growth inhibition, 48 h
Activity calls are given as the source filed them. Cut-off read from the data, not from the text of the source: active = GI50 up to about 1.1 µM and inactive = higher.
// reported GI50 per item

molecule: CC(=O)[C@H]1[C@@H](OCc2ccccc2)O[N+]([O-])=C(C)[C@@H]1c1ccccc1
GI50: 17.3 µM (inactive)

molecule: CCN(CC)C(=S)SC1C(=O)NC(=O)NC1=O
GI50: > 100 µM (inactive)

molecule: OCC(O)C(O)c1nn(-c2ccccc2)c2nc3cc(Cl)c(Cl)cc3nc12 (stereo not given)
GI50: 21.2 µM (inactive)

molecule: CC1CCCN(CC(O)CN2CCCc3ccccc32)C1 (stereo not given)
GI50: > 100 µM (inactive)

molecule: O=C1NC(N2CCCC(CO)C2)=N/C1=C\c1cccs1 (stereo not given)
GI50: > 100 µM (inactive)

molecule: CCC1(Br)C(=O)NC(=O)N(C2CC(O)C(CO)O2)C1N=[N+]=[N-] (stereo not given)
GI50: 66.7 µM (inactive)

molecule: Oc1ccc2c(c1)OCC(O)(c1ccccc1O)C2 (stereo not given)
GI50: > 100 µM (inactive)

molecule: O=c1[nH]cnc2c(C3OC(CO)C(O)C3O)c[nH]c12 (stereo not given)
GI50: > 100 µM (inactive)

molecule: CN(C)c1ccc2cc3ccc(N(C)C)cc3nc2c1 [ACRIDINE ORANGE]
GI50: 3.74 µM (inactive)

molecule: O=c1[nH]c(=O)n(C2CC(O)C(CO)O2)c2nc3ccc4cc5ccccc5cc4c3nc12 (stereo not given)
GI50: > 100 µM (inactive)

molecule: Cc1cc(NS(=O)(=O)c2ccc(NC(=O)c3ccc4nc5ccccc5c(Nc5ccc(S(N)(=O)=O)cc5)c4c3)cc2)no1
GI50: 23.4 µM (inactive)

molecule: CC(CC(=O)Nc1ccc(NC(=O)CC(C)/N=N\C(N)=S)cc1)/N=N\C(N)=S (stereo not given)
GI50: > 100 µM (inactive)

molecule: CCCCCC(/C=N/NC(N)=S)C(O)(C(F)(F)F)C(F)(F)F (stereo not given)
GI50: > 10 µM (inactive)

molecule: CCOC(=O)NC(=S)NN(C)C1=NCC(C)(C)S1
GI50: > 100 µM (inactive)

molecule: O=C(O)c1ccccc1C1c2ccccc2Oc2ccccc21
GI50: 69.5 µM (inactive)

molecule: O=C(NNC(=S)Nc1cccc(Cl)c1)c1cc(-c2ccccc2)nc2ccccc12
GI50: 16.1 µM (inactive)

molecule: C=C1C(=O)OC2/C=C(\COC(C)=O)CCC(OC(C)=O)C3=CC(OC3=O)C12 (stereo not given)
GI50: 1.59 µM (inactive)

molecule: CCOc1ccc(/C=C2\NC(=S)N(/C=C3\C(=O)Oc4ccccc4C3=O)C2=O)cc1
GI50: 3.84 µM (inactive)

molecule: CCN(CC)CCCC(C)Nc1c2ccc(Cl)cc2nc2cc(Cl)ccc12 (stereo not given)
GI50: 3.23 µM (inactive)

molecule: CC(C)(C)C1CCC2c3c([nH]c4ccccc34)C3C(=O)N(c4cccc(Cl)c4)C(=O)C3C2C1 (stereo not given)
GI50: 8.36 µM (inactive)

====

Reported GI50 values follow for various compounds
- Tested on: OVCAR-3
- test description: NCI tumour cell line growth inhibition, 48 h
The source made the active and inactive calls. Rule as the data show it: active = GI50 up to about 1.1 µM and inactive = higher.

compound: O=C(C#Cc1ccccc1)N1c2ccccc2CC1c1c[nH]c2ccccc12 (stereo not drawn)
GI50: 14.6 µM (inactive)
//
compound: CC1CCCC2(O1)OC1CC(=O)OC1C1=C2C(=O)c2ccccc2C1=O (stereo not drawn)
GI50: 2.72 µM (inactive)
//
compound: O=C(Nc1sccc1S(=O)(=O)c1ccc(Cl)cc1)C(F)(F)F
GI50: 31 µM (inactive)

====

Catalogue of GI50 values
- System: MOLT-4
- test description: NCI tumour cell line growth inhibition, 48 h
Active and inactive are the calls of the source. Rule as the data show it: active = GI50 up to about 1.1 µM and inactive = higher.
endpoint name: GI50

compound: Clc1ccc(-c2noc(CN3CCCCC3)n2)cc1
recorded measurement: 49.7 µM (inactive)
//
compound: C/C(=N/NS(=O)(=O)c1c(C)cc(C)cc1C)c1cccc[n+]1[O-]
recorded measurement: > 100 µM (inactive)
//
compound: O=C1C(c2ccccc2)=C(c2ccccc2)C(c2ccccc2)/C1=C1\C(=O)C(c2ccccc2)=C(c2ccccc2)C1c1ccccc1 (centres undefined)
recorded measurement: > 100 µM (inactive)
//
compound: CCCCc1c2c(nc3c1CCCC3O)CCCC2 (centres undefined)
recorded measurement: 71 µM (inactive)
//
compound: CCN(CC)COC(=S)S
recorded measurement: 22.3 µM (inactive)
//
compound: Nc1ncc2c(n1)-c1ccccc1OC2NC1CC1 (centres undefined)
recorded measurement: > 100 µM (inactive)
//
compound: B.CC(=O)OC1CN2CCC1CC2 (centres undefined)
recorded measurement: > 100 µM (inactive)
//
compound: CCOC(=O)C1=C(C)N(NC(=O)Nc2ccccc2)C(=O)C1=P(c1ccccc1)(c1ccccc1)c1ccccc1
recorded measurement: 18.8 µM (inactive)
//
compound: COc1cc(/C=C(\C#N)C(N)=C(C#N)C#N)cc(O)c1O
recorded measurement: 55.2 µM (inactive)
